Measured values drawn from PubChem BioAssay (Tox21) for this set.

TEST METHOD NOTES: p53 small molecule agonists, cell-based qHTS assay: qHTS cell viability counter screen (AID 1963581); note: nearly all actives have a fitted effect of over 45% in size
CONDITION NOTES: p53RE-bla HCT-116 viability, ATP luminescence, 16 h; series mostly up to 66 µM
Records with an inconclusive call do not appear. The source made the active and inactive calls. Calls come from the whole dose curve.
ENDPOINT: activity change, negative = cytotoxicity

Some compounds with known activity change, negative = cytotoxicity results, for comparison:
COMPOUND: CCCCC[Si](OCC)(OCC)OCC
activity change, negative = cytotoxicity: inactive
//
COMPOUND: N#CCCOCCC#N
activity change, negative = cytotoxicity: inactive
//
COMPOUND: O=C(/C=C/c1ccc(O)c(O)c1)O[C@@H]1C[C@@](OC(=O)/C=C/c2ccc(O)c(O)c2)(C(=O)O)C[C@@H](O)[C@@H]1O
activity change, negative = cytotoxicity: inactive
//
COMPOUND: Cc1ccc(C(C)(C)C)c(O)c1
activity change, negative = cytotoxicity: inactive
//
COMPOUND: COc1ccc(N=Nc2cc(C)c(N=Nc3ccc(S(=O)(=O)O)cc3)cc2OC)cc1
activity change, negative = cytotoxicity: inactive

Prompt: Form field: reported activity change, negative = cytotoxicity of Cc1ccc(O)c(C(=O)c2ccccc2)c1
Response: inactive

Prompt: Form field: reported activity change, negative = cytotoxicity of O=C(O)[C@@H]1CSCN1
Response: inactive

Prompt: Form field: reported activity change, negative = cytotoxicity of CCn1c(=O)c2c(nc(/C=C/c3ccc(OC)c(OC)c3)n2C)n(CC)c1=O
Response: inactive

Prompt: Form field: reported activity change, negative = cytotoxicity of C=CCN(CC=C)CC=C
Response: inactive

Prompt: Form field: reported activity change, negative = cytotoxicity of COC(OC)(C(=O)c1ccccc1)c1ccccc1
Response: inactive

Prompt: Form field: reported activity change, negative = cytotoxicity of CCN(Cc1ccncc1)C(=O)C(CO)c1ccccc1 (stereo unspecified)
Response: inactive

Prompt: Form field: reported activity change, negative = cytotoxicity of Nc1ncn([C@H]2C[C@H](O)[C@@H](CO)O2)c(=O)n1
Response: inactive
